Cited source: PubChem BioAssay (Tox21)

# measurement protocol: qHTS assay to test for compound auto fluorescence at 460 nm (blue) in HepG2 cell free culture (AID 720685); also: % is scaled to controls: 0 for no effect and ±100 for the full control effect
# condition summary: Cell-free culture medium, blue autofluorescence 405/460 nm; series mostly up to 91.3 µM
Activity calls are given as the source filed them. Calls follow the shape of the dose curve; as a rule, active = well fitted curve in the direction sought with a large enough effect in the repeat runs; inconclusive = weak or mixed curves; inactive = flat fitted curve, though single readings scatter.
measurement type: fluorescence, % of fluorescent control

These recorded examples may help you get a feel for the data.
Value of measured fluorescence, % of fluorescent control for the entry C=CC(=O)OCCOCCOC(=O)C=C : inactive

Value of measured fluorescence, % of fluorescent control for the entry CCCCCCCCCCO[C@@H]1O[C@H](CO)[C@@H](O)[C@H](O)[C@H]1O : inactive

Value of measured fluorescence, % of fluorescent control for the entry O=C1c2ccccc2S(=O)(=O)N1CCCCN1CCN(c2ncccn2)CC1 : inactive

Value of measured fluorescence, % of fluorescent control for the entry CCN(CC)CCOC(=O)C(c1ccccc1)C1CCCCC1 (configuration not stated) : inactive

Value of measured fluorescence, % of fluorescent control for the entry CCCCNc1ccc(C(=O)OCCOCCOCCOCCOCCOCCOCCOCCOCCOC)cc1 : -0.106% [at 18.6 µM] (inactive)

// each listed molecule needs a value for fluorescence, % of fluorescent control
1. CCCCC(=O)OCC(=O)[C@H]1[C@H](C)C[C@H]2[C@@H]3C[C@H](F)C4=CC(=O)C=C[C@]4(C)[C@@]3(F)[C@@H](O)C[C@@]21C
2. Nc1cccc(S(=O)(=O)c2cccc(N)c2)c1
3. O=C(Nc1ccc(S(=O)(=O)N2CCOCC2)cc1)c1cc(Cl)ccc1NS(=O)(=O)c1ccc(Cl)s1
4. C[C@@H](c1ncncc1F)C(O)(Cn1cncn1)c1ccc(F)cc1F (some centres not stated)
5. COc1cc2c(cc1OC)C(C(C(=O)N(CCc1ccc(OC)c(OC)c1OC)CCc1ccc(OC)c(OC)c1OC)c1ccccc1)=NCC2 (configuration not stated)
6. C/C(=C(\CCOP(=O)(O)O)SC(=O)c1ccccc1)N(C=O)Cc1cnc(C)nc1N
7. CCCCc1ncc(/C=C(\Cc2cccs2)C(=O)O)n1Cc1ccc(C(=O)O)cc1
8. O=C1OC(CN2CCOCC2)CN1/N=C/c1ccc([N+](=O)[O-])o1 (configuration not stated)

Response:
["inactive", "inactive", "inactive", "inactive", "inactive", "-0.035% [at 18.6 µM] (inactive)", "inactive", "-0.135% [at 18.6 µM] (inactive)"]
